System: Fibroblast
measurement.protocol: Multiplex assay against human fibroblast
Assay type: toxicity, cell-based
condition.info: 24 h, 1 µM, compound concentration 1 uM, replicate 2

molecule	measurement.target	Total Cell Count
Cc1ccc(/C(=C\CN2CCCC2)c2ccccn2)cc1 [TRIPROLIDINE]	Fibroblast	121
CN1CCN2c3ncccc3Cc3ccccc3C2C1 (stereo not drawn) [MIRTAZAPINE]	Fibroblast	153
Cc1ccc(F)cc1C(=O)Nc1ccc(C(=O)N2Cc3cccn3Cc3ccccc32)c(Cl)c1 [LIXIVAPTAN]	Fibroblast	126
CSc1ccccc1N1CCN(CCCCCC(=O)NC2CCCc3ccccc32)CC1.Cl (stereo not drawn)	Fibroblast	130
Oc1c(CN2CCN(c3ccccn3)CC2)cc(Cl)c2cccnc12	Fibroblast	153
N[C@@]1(C(=O)O)CO[C@H]2[C@H](C(=O)O)[C@H]21 [LY-379268]	Fibroblast	125
N#Cc1c(N)nc(SCc2csc(-c3ccc(Cl)cc3)n2)c(C#N)c1-c1ccc(OCCO)cc1 [CAPADENOSON]	Fibroblast	148
CN1CCN(c2nc3cc(C(F)(F)F)ccc3n3cccc23)CC1.O=C(O)/C=C\C(=O)O.O=C(O)/C=C\C(=O)O	Fibroblast	104
CCNC1(C(N)=O)CCN(c2ncnc3c2nc(-c2ccccc2Cl)n3-c2ccc(Cl)cc2)CC1 [OTENABANT]	Fibroblast	155
CN(C)c1ccnc2sc3c(=O)n(N4CCCCCC4)cnc3c12	Fibroblast	146
CN(C)CCCc1cc(C(=O)Nc2ccc(-c3ccncc3)cc2)ccc1O.Cl.Cl	Fibroblast	111
CCCN1CCC[C@@H]2Cc3n[nH]cc3C[C@H]21.Cl [QUINPIROLE HYDROCHLORIDE]	Fibroblast	150
C[C@H]1[C@H]2CC[C@H]3[C@@H]4CC=C5C[C@@H](N(C)C)CC[C@]5(C)[C@H]4CC[C@]23CN1C [CONESSINE]	Fibroblast	95
COc1ccc2c(c1)C(C(=O)N(Cc1ccc(N(C)C)cc1)c1ccc(C(C)C)cc1)CCC2.Cl (stereo not drawn)	Fibroblast	136
C[C@H](NC(=O)c1c(C(F)F)nn(C)c1Oc1cccc(C(F)(F)F)c1)c1ccc(C(=O)O)cc1 [PALUPIPRANT]	Fibroblast	141
O=C(O)c1cc2ccccc2c(Cc2c(O)c(C(=O)O)cc3ccccc23)c1O [PAMOIC ACID]	Fibroblast	147
CCCn1c(=O)c2[nH]c(C3CCCC3)nc2n(CCC)c1=O	Fibroblast	159
CCOc1c2c(c(OCC)c3ncccc13)CN(c1ccc(CS(=O)(=O)NC(=O)Cc3ccccc3OC)cc1C)C2=O	Fibroblast	104

###

Test system: HEK-293T
measurement.protocol: Multiplex assay against HEK293T
Format: toxicity, cell-based
condition.info: human, 12 h, 1 µM, compound concentration 1 uM, replicate 1
reported.endpoint: Population Pyknosed Nuclei (%)

molecule	measurement.target	data.value
O=C1COc2nccc(-c3ccccc3F)c2CN1Cc1cc(C(F)(F)F)cc(C(F)(F)F)c1	HEK-293T	10
CCOc1c2c(c(OCC)c3ncccc13)CN(c1ccc(CS(=O)(=O)NC(=O)Cc3ccccc3OC)cc1C)C2=O	HEK-293T	14
CSc1ccccc1N1CCN(CCCCCC(=O)NC2CCCc3ccccc32)CC1.Cl (centres undefined)	HEK-293T	18
CN1CCN2c3ncccc3Cc3ccccc3C2C1 (centres undefined)	HEK-293T	7
O=C(NCCO)c1cccc(-c2cc(Nc3ccc(OC(F)(F)F)cc3)ncn2)c1	HEK-293T	13
COc1ccc2c(c1)C(C(=O)N(Cc1ccc(N(C)C)cc1)c1ccc(C(C)C)cc1)CCC2.Cl (centres undefined)	HEK-293T	13
C[C@H](NC(=O)c1c(C(F)F)nn(C)c1Oc1cccc(C(F)(F)F)c1)c1ccc(C(=O)O)cc1	HEK-293T	13
CCCN1CCC[C@@H]2Cc3n[nH]cc3C[C@H]21.Cl [QUINPIROLE HYDROCHLORIDE]	HEK-293T	9
CC1(COc2ccc3c(c2)ncn3-c2ccc3cccc(N4CCC(N)CC4)c3n2)COC1	HEK-293T	6
Cc1nc2ccc(Oc3ccc(F)cc3)cc2c(=O)n1C[C@H]1CCCN(C(C)C)C1.Cl	HEK-293T	11
O=C(O)c1cc2ccccc2c(Cc2c(O)c(C(=O)O)cc3ccccc23)c1O	HEK-293T	12
COc1c(C)cc(NC(=O)c2nn(Cc3ccc(F)cc3)c3c2CN(C(=O)c2ccc[nH]2)C[C@]3(C)C(N)=O)cc1C	HEK-293T	13
c1cc(OCCCN2CCCCC2)ccc1CN1CCCCC1	HEK-293T	8
Cc1ccc(F)cc1C(=O)Nc1ccc(C(=O)N2Cc3cccn3Cc3ccccc32)c(Cl)c1	HEK-293T	10
N#Cc1c(N)nc(SCc2csc(-c3ccc(Cl)cc3)n2)c(C#N)c1-c1ccc(OCCO)cc1	HEK-293T	13
CCCn1c(=O)c2[nH]c(C3CCCC3)nc2n(CCC)c1=O	HEK-293T	12
O=S(=O)(c1ccccc1)c1cnc2c(N3CCNCC3)cccc2c1 [INTEPIRDINE]	HEK-293T	12
C[C@H]1[C@H]2CC[C@H]3[C@@H]4CC=C5C[C@@H](N(C)C)CC[C@]5(C)[C@H]4CC[C@]23CN1C	HEK-293T	16
Oc1c(CN2CCN(c3ccccn3)CC2)cc(Cl)c2cccnc12	HEK-293T	10
Cc1ccc(C(C)(O)c2nc3ccccc3s2)c(C)c1 (centres undefined)	HEK-293T	8
CNC[C@H](O)c1ccc(O)c(O)c1 [EPINEPHRINE]	HEK-293T	11
COc1cc(NC(=O)CCN2CCC(OC(=O)Nc3ccccc3-c3ccccc3)CC2)c(Cl)cc1CNC[C@H](O)c1ccc(O)c2[nH]c(=O)ccc12	HEK-293T	14
CCNC1(C(N)=O)CCN(c2ncnc3c2nc(-c2ccccc2Cl)n3-c2ccc(Cl)cc2)CC1	HEK-293T	10
O=C(NCC(=O)N1CC[C@H](N[C@H]2CC[C@@](O)(c3ccc(-c4ncccn4)cn3)CC2)C1)c1cccc(C(F)(F)F)c1	HEK-293T	13
Cc1ccc(/C(=C\CN2CCCC2)c2ccccn2)cc1	HEK-293T	9
CN(C)c1ccnc2sc3c(=O)n(N4CCCCCC4)cnc3c12	HEK-293T	13
CN(C)CCCc1cc(C(=O)Nc2ccc(-c3ccncc3)cc2)ccc1O.Cl.Cl	HEK-293T	14
CN1CCN(c2nc3cc(C(F)(F)F)ccc3n3cccc23)CC1.O=C(O)/C=C\C(=O)O.O=C(O)/C=C\C(=O)O	HEK-293T	13
CC[C@H]1OC(=O)[C@H](C)[C@@H](O[C@H]2C[C@@](C)(OC)[C@@H](O)[C@H](C)O2)[C@H](C)[C@@H](O[C@@H]2O[C@H](C)C[C@H](N(C)C)[C@H]2O)[C@@]2(C)CC(C)=C(O2)[C@H](C)[C@@H](O)[C@]1(C)O	HEK-293T	17
COc1cc(C(=O)N(CCCc2ccccc2)Cc2ccc(CC(=O)O)cc2)cc(OC)c1C	HEK-293T	10
C[C@@H]1C[C@H]2[C@@H]3CCC4=CC(=O)C=C[C@]4(C)[C@@]3(F)[C@@H](O)C[C@]2(C)[C@@]1(O)C(=O)CO	HEK-293T	12
CCCC(CCC)C(=O)O	HEK-293T	12
Cl.Clc1ccc2nsnc2c1NC1=NCCN1 [TIZANIDINE HYDROCHLORIDE]	HEK-293T	9
Cc1ccccc1C(=O)Nc1ccc(C(=O)N2CCCC(N(C)C)c3ccccc32)cc1.Cl (centres undefined)	HEK-293T	12

###

Measured Population Healthy Nuclei (%), listed per entry.
Test system: U2OS
measurement.protocol: Multiplex assay against U2OS
Type: toxicity, cell-based
condition.info: human, 48 h, 10 µM, compound concentration 10 uM, replicate 2
reported.endpoint: Population Healthy Nuclei (%)

compound	measurement.target	data.value
Oc1c(CN2CCN(c3ccccn3)CC2)cc(Cl)c2cccnc12	U2OS	42%
CCCn1c(=O)c2[nH]c(C3CCCC3)nc2n(CCC)c1=O	U2OS	73%
CSCC[C@H](NC=O)C(=O)N[C@@H](CC(C)C)C(=O)N[C@@H](Cc1ccccc1)C(=O)O	U2OS	25%
O=C(NCCO)c1cccc(-c2cc(Nc3ccc(OC(F)(F)F)cc3)ncn2)c1	U2OS	64%
CSc1ccccc1N1CCN(CCCCCC(=O)NC2CCCc3ccccc32)CC1.Cl (configuration not stated)	U2OS	20%
Cl.Clc1ccc2nsnc2c1NC1=NCCN1 [TIZANIDINE HYDROCHLORIDE]	U2OS	65%
CCOc1c2c(c(OCC)c3ncccc13)CN(c1ccc(CS(=O)(=O)NC(=O)Cc3ccccc3OC)cc1C)C2=O	U2OS	74%
CN(C)c1ccnc2sc3c(=O)n(N4CCCCCC4)cnc3c12	U2OS	61%
O=S(=O)(c1ccccc1)c1cnc2c(N3CCNCC3)cccc2c1 [INTEPIRDINE]	U2OS	75%
O=C1COc2nccc(-c3ccccc3F)c2CN1Cc1cc(C(F)(F)F)cc(C(F)(F)F)c1	U2OS	60%
N[C@@]1(C(=O)O)CO[C@H]2[C@H](C(=O)O)[C@H]21 [LY-379268]	U2OS	83%
C[C@@H]1C[C@H]2[C@@H]3CCC4=CC(=O)C=C[C@]4(C)[C@@]3(F)[C@@H](O)C[C@]2(C)[C@@]1(O)C(=O)CO [DEXAMETHASONE]	U2OS	76%
COc1c(C)cc(NC(=O)c2nn(Cc3ccc(F)cc3)c3c2CN(C(=O)c2ccc[nH]2)C[C@]3(C)C(N)=O)cc1C	U2OS	47%
CN(C)CCCc1cc(C(=O)Nc2ccc(-c3ccncc3)cc2)ccc1O.Cl.Cl	U2OS	63%
O=C(NCC(=O)N1CC[C@H](N[C@H]2CC[C@@](O)(c3ccc(-c4ncccn4)cn3)CC2)C1)c1cccc(C(F)(F)F)c1 [PF-4136309]	U2OS	60%
CC[C@H]1OC(=O)[C@H](C)[C@@H](O[C@H]2C[C@@](C)(OC)[C@@H](O)[C@H](C)O2)[C@H](C)[C@@H](O[C@@H]2O[C@H](C)C[C@H](N(C)C)[C@H]2O)[C@@]2(C)CC(C)=C(O2)[C@H](C)[C@@H](O)[C@]1(C)O	U2OS	42%
CN1CCN2c3ncccc3Cc3ccccc3C2C1 (configuration not stated) [MIRTAZAPINE]	U2OS	78%
